Assay: soluble on expression in E. coli; label from the status in PepcDB or PDB records

seq: MIEFFLPMDKIPTTTHQQKKVTVINGKPHFYEPESLKNARDKFTSLLAQHVPPSKLDGPIRLTVKWLFPKIKGSTNGQYKTTKPDTDNLQKLLKDCMTELGFWNDDAQVASEIIEKFWADTVGIYVKVEEL
soluble on expression in E. coli: not soluble
--
seq: MIKEAIKQLAQDIGISKIGFTTADDFDYLEKSLRASVEEGRSSGFEHKNIEERIKPRLSLASAKTIISIAIAYPHKLPVKPPKTQYKRGKITPNSWGLDYHYVLEEKLQRLAQGIESLCQDFPLEHKIMVDTGALVDTAVAQRSGIGFIGKNGLVISKEFGSYMYLGELITNLEIEPDSPVDYDCGDCHRCLDACPTSCLLGDGSMNAKRCLSFQTQDKGMMDLEFRKKIKTVIYGCDICQICCPYNKGIHNPLASEIDPELAEPELLPFLELSNSQFKKKFGMIAGSWRGKNTLQRNAIIALANGHDKSALVKLMEIIDKNNNPIHTATAIWALGEIVKKPTQELYDFILSIHSDNDAIIKERTALLNRWQF
soluble on expression in E. coli: not soluble

----------
Assay: soluble on expression in E. coli; label from the status in PepcDB or PDB records
measured.parameter: soluble on expression in E. coli

Reference set (4 entries):
seq: SYFSIFSPSFTSLRHDGKPVQCSGLDMQFDPSEPGFYDDPDLSYSIEKPITKWDEKRNQWFESHPSFKPGSENRIVMVTGSQSSPCKNPIGDHLLLRCFKNKVDYARIHGHDIFYSNSLLHPKMNSYWAKLPVVKAAMLAHPEAEWIWWVDSDAIFTDMEFKPPLHRYRQHNLVVHGWPNIIYEKQSWTALNAGVFLIRNCQWSMDLIDTWKSMGPVSPDYKKWGPIQRSIFKDKLFPESDDQTALIYLLYKHKELYYPKIYLEAEYYLQGYWIGVFGDFANVTERYLEMEREDDTLRRRHAEKVSERYGAFREERFLKGEFGGRGSRRRAFITHFTGCQPCSGDHNPSYDGDTCWNEMTRALNFADNQVMRVYGYVHSDLSKTSPLQPLPFDYPNEAW
soluble on expression in E. coli: soluble

seq: MAEPARARPKITPETQHYWDGAKQGELRLQRCDSCAHAYFPPRPFCPKCGSREVSVFKASGKGTLYSYVINHRPLAAGFTEPYAIAVVELEEGPRMMSNILECPQTPEALELDMKLEVTFQKIDDNLTLPQFRPAKG
soluble on expression in E. coli: not soluble

seq: MGLTFENNTIENFDVQATFGMMNFLEVVAINERDGENNVTEEVREQRVTVYSSKLNDQVEIVIDPDYDVSGINYDDEIELTGNVTARGWLYTFKGYNDNVQTEQAFKVRAAGIKKVGAVKQTQAPQPKEKQENKQ
soluble on expression in E. coli: not soluble

seq: MFIQTEPTPNPATLKFIPGRSVLDSGTLEFTDASQAARSPLAARLFDIDGVSGVFYGTDFVTVTKDKGEWQHLKPAILGAIMEHYMSGTPILADGKSDGEDGDDDEFYADADAETVEIIKDLIETRVRPAVANDGGDITFRGFKDGIVYLNMRGACAGCPSSTATLQHGIQNLLKHFVPEVVEVRPVT
soluble on expression in E. coli: not soluble

Ask: Look at this sequence and give its reported soluble on expression in E. coli. TTGSDGKATFDVTQNETYGLATPLTATLMRDTTKSATMDVIFTVITSPNSPKAKYWGHMPDTFTSRAGVTFKRPLLAAEATLGSSVSNNNESWSYLFYTNKVTPDCPVEYQPRLNELQGLYNDHPGGTILTDLGLPITAGSGNWWTYEMSTTDALTWYYGVINLKTGQSTTTINGYALMLCL
Reply: not soluble

Ask: Look at this sequence and give its reported soluble on expression in E. coli. MAKPILYSYWRSSCAWRVRIALALKNIDYEYRPIDLFSEESKNNAEFVKHNPAKKVPTLVINGLSLTESLAIIEYLDEAYPDPPFLPKELDKRSYSRAIALHIVASIQPLQAINIHKMLNEKEPGYGDFWCNHFVNKGFLALEELLKKHSGKYCVGDQLTIADINLPSIIYNAKIYKVDMSKYPTITRINEILAEDFRFKLAHPDNQPDAPNKN
Reply: not soluble

Ask: Look at this sequence and give its reported soluble on expression in E. coli. MKFETINQESIAKLMEIFYEKVRKDKDLGPIFNNAIGTSDEEWKEHKAKIGNFWAGMLLGEGDYNGQPLKKHLDLPPFPQEFFEIWLKLFEESLNIVYNEEMKNVILQRAQMIASHFQNMLYKYGGH
Reply: soluble

----------
Assay: soluble on expression in E. coli; label from the status in PepcDB or PDB records
measured.parameter: soluble on expression in E. coli

seq: MHECKTVTLRTRPLKGRMMSFYLDYYPGYRDKETMKVIRHESLGIYIYANPRNKREQNFNEVMTEKAEAIRCRRFESVVNERYDFFDKYKLKADFLEYYRKQLRKHDQKWEFVYLHFNNFVHGKCTFEEIDIDLCNKFREYLLSAKKLRRNGRITRNSASGYWSTFRGFLKILYRNGMIKTNVNDFLEKIETEDVMKEALSVEELYKLAETPCKKPILKTASLFSCMTSLRISDILSLCWEDIVDYSAGGKCVHIITQKNKAEDIIPISEEALGLIGYSSEKKGLVFKGLMRSWTQIPMKEWI
value: not soluble
//
seq: MNANLPPSAISELHGPRLLLRAWRDSDREAFAEMCADPQVMEFFPSVLDRAQSDALVDRVQAHFAERGYGPWALELPGEAAFIGFTGLFDVTMDVHFAPTVEIGWRLAPAYWGRGLAREAAETALDFAFERLRLPEVVAFTTPPNRRSWGLMERLGMRRDPAEDFDHPLLAADHPMRRHILYRVDAARWAER
value: not soluble
//
seq: MGSDKIHHHHHHMDNNNSYLWPVTYDEVSHELTKWKFYKHFTKISGSVYLKNDLIDDPVLVTQALIKRCPQGVLRGYAALNRRGYQLFDDPWMPIISISGEPRTRKTTNVGKIIRRETPENLRRSGEFTLVSDSQALLDVFSLHGLDSFEHQVALIDHLIRQCPDLKDEIKKVPELRKHAEFTDEFAESPPESRLRVRLHMQGYRNFMPQVRVELEGRRFYLDLADPVWGVALEYNGGWHYTAEQRSKDAFRKNALKNAGWDVFEVTSKTLQSQQAWDYFFQQVRVAIQRKYADRKRRLPMQTVS
value: not soluble

----------
Test: soluble on expression in E. coli; label from the status in PepcDB or PDB records
measured.parameter: soluble on expression in E. coli

seq: FINQKKVEESELIENKTYGVLITKAGNYHKFESNQLLKSTTDFKSESDTIIFAQTIANTDQIFIVTSLGNIINIPVYKLAFNSKNKLASLVSKKPILLEYETIVFVGTMN
value: not soluble
--
seq: VNSHCSHTFITDNRSPRARRGHAMSTLHKVKAYFGMAPMEDYDDEYYDDRAPSRGYARPRFDDDYGRYDGRDYDDARSDSRGDLRGEPADYPPPGYRGGYADEPRFRPREFDRAEMTRPRFGSWLRNSTRGALAMDPRRMAMMFEDGHPLSKITTLRPKDYSEARTIGERFRDGSPVIMDLVSMDNADAKRLVDFAAGLAFALRGSFDKVATKVFLLSPADVDVSPEERRRIAETGFYAYQ
value: not soluble

----------
Test: soluble on expression in E. coli; label from the status in PepcDB or PDB records

seq: MAHHHHHHMQRNWVLLPQTVRAGDAPKSSAVRTPTRPLPYVCLKSNDGMEFVLPEVAARQSKMLAMLLDAVYSLPERGGFAEPTNARGEQHTTVHASNNIGTMPCIPLEVLSGRILELVCRYLVQRSTSDVNSTDEFALLGELNPTSSSDQDIVLGLLMASDYLDC
soluble on expression in E. coli: soluble
//
seq: MSKLELLPAVDVRDGQAVRLVHGESGTETSYGSPLEAALAWQRSGAEWLHLVDLDAAFGTGDNRALIAEVAQAMDIKVELSGGIRDDDTLAAALATGCTRVNLGTAALETPEWVAKVIAEHGDKIAVGLDVRGTTLRGRGWTRDGGDLYETLDRLNKEGCARYVVTDIAKDGTLQGPNLELLKNVCAATDRPVVASGGVSSLDDLRAIAGLVPAGVEGAIVGKALYAKAFTLEEALEATSLEPG
soluble on expression in E. coli: soluble

----------
Assay: soluble on expression in E. coli; label from the status in PepcDB or PDB records
measured.parameter: soluble on expression in E. coli

Reference set (4 entries):
seq: MGSMAHSDGIFKKEQAMCLEKIQRANELMGFNDSSPGCPGMWDNITCWKPAHVGEMVLVSCPELFRIFNPDQDMGVVSRNCTEDGWSEPFPHYFDACGFDEYESET
soluble on expression in E. coli: soluble

seq: MAKQSGGKPQIDEDFMKEIISQGLPVKKQETPLVTVETPDKPETVNKEEIKAEPKEEKAVKEPARRKKNTPGDYRETYFMRVDLTDRQPLYVSRTTHEKLMKIVTVIGGRKATVSSYVENILLRHFDQFQDEINELYESKFEKPF
soluble on expression in E. coli: soluble

seq: MGSDKIHHHHHHMQKRNELPGHLAVAPFTLDSARASGVSRARLRRKDVVHVGRGLYRPSDWNFELEAAARALSTASPGAWISHVTAARLHCQLLPPWLADSTELHLSKPRALPSVRRSGVIGHTVVALEDEIESIDGLRVSTRSRTWLDLARRLPVSDLVCMGDQLIRVPRVAFEGRTRPYDTLDGLRTLVGRHPNLQGVVRAREALHLMRVGADSAPESLLRLAMADAGLPEPELQLALRPTDAVSPTADLGYRHRRLAIQYDGEHHLLDAQIFSDRRRDKAFESAGWTVLILGKDDLADGCRPAVSKIKRLLRTAWLDHPQASGFADAG
soluble on expression in E. coli: not soluble

seq: MTTALYLEDAYKTSCETEVIKVEGNKVFVKETVFYPTGGGQECDTGVIVQDGSVFEVEKVKKEQGEIVHYIKDEAQVKLGPVKLEINWERRHNLMRHHSLLHLIGAVVYEKYGALCTGNQIYPDKARIDFNELQELSSVEVEEIVEEVNKLIKQNKEISTRYMSREEAENAVGMIKTAINLLPTTIQEIRIVTIENLDEQACGGTHVKNTSEIGTLVIDKVKSKGKQNRRFEVRAI
soluble on expression in E. coli: not soluble

Ask: Look at this sequence and give its reported soluble on expression in E. coli. MADDLGDEWWTQGDNSDVPEVEEETEHAEEKQPIKSTPKKRKVEKQIPDATKKKKATVKKECFITQERSEEKPDNESNKNKKRRKKKKTITDVLTSSKPVPGSPVDLVSLLKTYHSQTRSVIEQEELTLQDSCFLSCNDLTHSLSSYLKEVCPKWAKMQKQHTQTSSVVLLIVCGSALRTIDLIKQLVTFKGQAKVLKLFAKHIKVEEQIKSLSKGVTHIAVGTPGRICALLEKEGLTVQGLRYLVLDWNYRDQKQRRMVDVPEVKGDLLKMMDQGLIQSCREGTVKIGLF
Reply: not soluble

Ask: Look at this sequence and give its reported soluble on expression in E. coli. MISHCRRLLATTTALVIASTAIAAAEPSAELIAAAKKEGMLTTVALPHDWCGYGDVIAAFKAKYPEITVNELNPDAGSADEVEAVKANKDNKGPQAPDVVDVGLAFGPQMKAEGLLQPYKVSTWAEIPDNVKDADGYWYGDYYGVMSMFVNKDLVKNVPKDWADLLKPEYSGQVALAGDPRASNQAILGVLAAGLSTGAKSGKEAGEAGLKYFADLNKAGNFLPVIGKAGTLAQGATPIIVAWDYNALSWKKTLNDNPPTEVVVPEKGVLAGVYVQGISAYAPHPNAAKLWMEHLYSDDGQLGWLKGYCHPIRFNAMVKAGKVPQELIDSLPPAAAYEKAIFPTLEEVDANKAAVTGGWDKVVGANVK
Reply: not soluble

Every entry's value here was drawn from the DeepSol protein solubility set.
